Details: in sec-butanol, 288.15 K
reportedProperty: solubility (mole fraction)
Lab note: jot the number down without any unit.

Need solubility (mole fraction) of C[C@@H]1O[C@@H](OC[C@H]2O[C@@H](Oc3c(-c4ccc(OCCO)c(OCCO)c4)oc4cc(OCCO)cc(O)c4c3=O)[C@H](O)[C@@H](O)[C@@H]2O)[C@H](O)[C@H](O)[C@H]1O , thanks. 8.6e-05

---

Conditions: in n-propanol, 308.15 K
reportedProperty: solubility (mole fraction)
Lab note: jot the number down without any unit.

Need solubility (mole fraction) of C[C@@H]1O[C@@H](OC[C@H]2O[C@@H](Oc3c(-c4ccc(OCCO)c(OCCO)c4)oc4cc(OCCO)cc(O)c4c3=O)[C@H](O)[C@@H](O)[C@@H]2O)[C@H](O)[C@H](O)[C@H]1O , thanks. 0.000317

---

Settings: in ethanol, 293.15 K
reportedProperty: solubility (mole fraction)
Lab note: jot the number down without any unit.

Need solubility (mole fraction) of C[C@@H]1O[C@@H](OC[C@H]2O[C@@H](Oc3c(-c4ccc(OCCO)c(OCCO)c4)oc4cc(OCCO)cc(O)c4c3=O)[C@H](O)[C@@H](O)[C@@H]2O)[C@H](O)[C@H](O)[C@H]1O , thanks. 0.000252

---

Settings: in n-butanol, 313.15 K
reportedProperty: solubility (mole fraction)
Lab note: jot the number down without any unit.

Need solubility (mole fraction) of C[C@@H]1O[C@@H](OC[C@H]2O[C@@H](Oc3c(-c4ccc(OCCO)c(OCCO)c4)oc4cc(OCCO)cc(O)c4c3=O)[C@H](O)[C@@H](O)[C@@H]2O)[C@H](O)[C@H](O)[C@H]1O , thanks. 0.000312

---

Details: in ethanol, 313.15 K
reportedProperty: solubility (mole fraction)
Lab note: jot the number down without any unit.

Need solubility (mole fraction) of C[C@@H]1O[C@@H](OC[C@H]2O[C@@H](Oc3c(-c4ccc(OCCO)c(OCCO)c4)oc4cc(OCCO)cc(O)c4c3=O)[C@H](O)[C@@H](O)[C@@H]2O)[C@H](O)[C@H](O)[C@H]1O , thanks. 0.000468

---

Conditions: in isopropanol, 313.15 K
reportedProperty: solubility (mole fraction)
Lab note: jot the number down without any unit.

Need solubility (mole fraction) of C[C@@H]1O[C@@H](OC[C@H]2O[C@@H](Oc3c(-c4ccc(OCCO)c(OCCO)c4)oc4cc(OCCO)cc(O)c4c3=O)[C@H](O)[C@@H](O)[C@@H]2O)[C@H](O)[C@H](O)[C@H]1O , thanks. 0.000329

---

Conditions: in acetonitrile, 323.15 K
reportedProperty: solubility (mole fraction)
Lab note: jot the number down without any unit.

Need solubility (mole fraction) of C[C@@H]1O[C@@H](OC[C@H]2O[C@@H](Oc3c(-c4ccc(OCCO)c(OCCO)c4)oc4cc(OCCO)cc(O)c4c3=O)[C@H](O)[C@@H](O)[C@@H]2O)[C@H](O)[C@H](O)[C@H]1O , thanks. 7e-05

---

Details: in ethanol, 323.15 K
reportedProperty: solubility (mole fraction)
Lab note: jot the number down without any unit.

Need solubility (mole fraction) of C[C@@H]1O[C@@H](OC[C@H]2O[C@@H](Oc3c(-c4ccc(OCCO)c(OCCO)c4)oc4cc(OCCO)cc(O)c4c3=O)[C@H](O)[C@@H](O)[C@@H]2O)[C@H](O)[C@H](O)[C@H]1O , thanks. 0.000632

---

Settings: in methanol, 313.15 K
reportedProperty: solubility (mole fraction)
Lab note: jot the number down without any unit.

Need solubility (mole fraction) of C[C@@H]1O[C@@H](OC[C@H]2O[C@@H](Oc3c(-c4ccc(OCCO)c(OCCO)c4)oc4cc(OCCO)cc(O)c4c3=O)[C@H](O)[C@@H](O)[C@@H]2O)[C@H](O)[C@H](O)[C@H]1O , thanks. 0.000714

---

Conditions: in isobutanol, 318.15 K
reportedProperty: solubility (mole fraction)
Lab note: jot the number down without any unit.

Need solubility (mole fraction) of C[C@@H]1O[C@@H](OC[C@H]2O[C@@H](Oc3c(-c4ccc(OCCO)c(OCCO)c4)oc4cc(OCCO)cc(O)c4c3=O)[C@H](O)[C@@H](O)[C@@H]2O)[C@H](O)[C@H](O)[C@H]1O , thanks. 0.000238

---

Conditions: in methanol, 298.15 K
reportedProperty: solubility (mole fraction)
Lab note: jot the number down without any unit.

Need solubility (mole fraction) of C[C@@H]1O[C@@H](OC[C@H]2O[C@@H](Oc3c(-c4ccc(OCCO)c(OCCO)c4)oc4cc(OCCO)cc(O)c4c3=O)[C@H](O)[C@@H](O)[C@@H]2O)[C@H](O)[C@H](O)[C@H]1O , thanks. 0.000362

---

Settings: in acetonitrile, 318.15 K
reportedProperty: solubility (mole fraction)
Lab note: jot the number down without any unit.

Need solubility (mole fraction) of C[C@@H]1O[C@@H](OC[C@H]2O[C@@H](Oc3c(-c4ccc(OCCO)c(OCCO)c4)oc4cc(OCCO)cc(O)c4c3=O)[C@H](O)[C@@H](O)[C@@H]2O)[C@H](O)[C@H](O)[C@H]1O , thanks. 4.9e-05

---

Conditions: in methanol, 318.15 K
reportedProperty: solubility (mole fraction)

Need solubility (mole fraction) of C[C@@H]1O[C@@H](OC[C@H]2O[C@@H](Oc3c(-c4ccc(OCCO)c(OCCO)c4)oc4cc(OCCO)cc(O)c4c3=O)[C@H](O)[C@@H](O)[C@@H]2O)[C@H](O)[C@H](O)[C@H]1O , thanks. 0.000876

---

Settings: in isopropanol, 298.15 K
reportedProperty: solubility (mole fraction)
Lab note: jot the number down without any unit.

Need solubility (mole fraction) of C[C@@H]1O[C@@H](OC[C@H]2O[C@@H](Oc3c(-c4ccc(OCCO)c(OCCO)c4)oc4cc(OCCO)cc(O)c4c3=O)[C@H](O)[C@@H](O)[C@@H]2O)[C@H](O)[C@H](O)[C@H]1O , thanks. 0.000161

---

Conditions: in n-propanol, 288.15 K
reportedProperty: solubility (mole fraction)
Lab note: jot the number down without any unit.

Need solubility (mole fraction) of C[C@@H]1O[C@@H](OC[C@H]2O[C@@H](Oc3c(-c4ccc(OCCO)c(OCCO)c4)oc4cc(OCCO)cc(O)c4c3=O)[C@H](O)[C@@H](O)[C@@H]2O)[C@H](O)[C@H](O)[C@H]1O , thanks. 0.000144

---

Conditions: in acetone, 323.15 K
reportedProperty: solubility (mole fraction)

Need solubility (mole fraction) of C[C@@H]1O[C@@H](OC[C@H]2O[C@@H](Oc3c(-c4ccc(OCCO)c(OCCO)c4)oc4cc(OCCO)cc(O)c4c3=O)[C@H](O)[C@@H](O)[C@@H]2O)[C@H](O)[C@H](O)[C@H]1O , thanks. 0.000162

---

Conditions: in n-propanol, 303.15 K
reportedProperty: solubility (mole fraction)
Lab note: jot the number down without any unit.

Need solubility (mole fraction) of C[C@@H]1O[C@@H](OC[C@H]2O[C@@H](Oc3c(-c4ccc(OCCO)c(OCCO)c4)oc4cc(OCCO)cc(O)c4c3=O)[C@H](O)[C@@H](O)[C@@H]2O)[C@H](O)[C@H](O)[C@H]1O , thanks. 0.000258

---

Details: in sec-butanol, 313.15 K
reportedProperty: solubility (mole fraction)

Need solubility (mole fraction) of C[C@@H]1O[C@@H](OC[C@H]2O[C@@H](Oc3c(-c4ccc(OCCO)c(OCCO)c4)oc4cc(OCCO)cc(O)c4c3=O)[C@H](O)[C@@H](O)[C@@H]2O)[C@H](O)[C@H](O)[C@H]1O , thanks. 0.000319

---

Conditions: in n-pentanol, 318.15 K
reportedProperty: solubility (mole fraction)

Need solubility (mole fraction) of C[C@@H]1O[C@@H](OC[C@H]2O[C@@H](Oc3c(-c4ccc(OCCO)c(OCCO)c4)oc4cc(OCCO)cc(O)c4c3=O)[C@H](O)[C@@H](O)[C@@H]2O)[C@H](O)[C@H](O)[C@H]1O , thanks. 0.000289

---

Conditions: in n-pentanol, 313.15 K
reportedProperty: solubility (mole fraction)
Lab note: jot the number down without any unit.

Need solubility (mole fraction) of C[C@@H]1O[C@@H](OC[C@H]2O[C@@H](Oc3c(-c4ccc(OCCO)c(OCCO)c4)oc4cc(OCCO)cc(O)c4c3=O)[C@H](O)[C@@H](O)[C@@H]2O)[C@H](O)[C@H](O)[C@H]1O , thanks. 0.000222

---

Details: in n-propanol, 318.15 K
reportedProperty: solubility (mole fraction)

Need solubility (mole fraction) of C[C@@H]1O[C@@H](OC[C@H]2O[C@@H](Oc3c(-c4ccc(OCCO)c(OCCO)c4)oc4cc(OCCO)cc(O)c4c3=O)[C@H](O)[C@@H](O)[C@@H]2O)[C@H](O)[C@H](O)[C@H]1O , thanks. 0.000458

All values here come from BigSolDB 2.1.
